System: ear edema induced by topical application of TPA (phorbol 12-myristate acetate)
Experiment: TPA-Induced Ear Edema (TPAEE)
Assay type: in vivo, Female Swiss Webster mice
Conditions: 5 h, 10 μg (per ear), mouse, five hours, read-out: TPAEE
Where a name gives a salt, the structure may show the parent alone.
change in vivo at 10 µg/ear strictly less than -40% = fulfilled. Otherwise not fulfilled.

Nc1ccncc1C(=O)C1CCCCC1 [hydrochloride] ... fulfilled
Nc1ccncc1C(=NO)c1ccccc1 [hydrochloride] ... not fulfilled
Cl.Cl.Nc1ccncc1C(N)C1CCCCC1 (stereo not shown) [dihydrochloride] ... not fulfilled
CC(C)(C)C(=O)Nc1ccncc1C(O)C1CCCCC1 (stereo not shown) ... fulfilled
CC(NCc1ccccc1)c1cnccc1N (stereo not shown) ... fulfilled

Identify whether the molecule CC(O)c1cnccc1NC(=O)C(C)(C)C (stereo not shown) records change in vivo at 10 µg/ear below -40%. fulfilled

Please indicate whether the reported change in vivo at 10 µg/ear of Nc1ccncc1C(=NO)C1CCCCC1 [hydrochloride] is strictly below -40%. not fulfilled

---

System: mouse ear edema induced by topical application of arachidonic acid
Assay: Arachidonic Acid-Induced Ear Edema (AAEE)
Assay type: in vivo, Female Swiss Webster mice
Conditions: 1.0 mg (per ear), mouse
attributeMeasured: AAEE (%)
Express it in %; write the number only.

Illustrative cases are given below, each with its answer.
CC(NCc1ccccc1)c1cnccc1NC(=O)C(C)(C)C.Cl.Cl (stereo not shown) ... -44
CCCCNCc1cnccc1NC(=O)C(C)(C)C.Cl.Cl ... -45
Cl.Cl.Nc1ccncc1C(N)C1CCCCC1 (stereo not shown) ... -28

Requested field: AAEE. Item: CC(C)(C)C(=O)Nc1ccncc1C(O)C1CCCCC1 (stereo not shown) -52
